Biological target: YAP1 169-207, P46937
Sequence (P46937 169-207): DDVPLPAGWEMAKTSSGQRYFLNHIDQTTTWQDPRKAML
observationType: selected by phage display

// solved cases for selected by phage display follow
> print(dat)
                               binder                 result
1  AAATAGAPTALPAYPA [TMEM158, Q8WZ71]  confidence 2 (active)
2   LPPYPEHLTSPLSPAQ [ZNF783, Q6ZMS7]  confidence 2 (active)
3                    EPPPSYDEAVKMAKPR  confidence 3 (active)
4                    SMAPPAYSLYTPEPPP  confidence 3 (active)
5    APPPPGYHQNGVIRNQ [MYO1E, Q12965]  confidence 3 (active)
6      NNSLPPYAQGLASPQG [TBP, P20226]  confidence 3 (active)

// moving on: another record for selected by phage display
Q: Could you share which selected by phage display value was measured for SVLPPSYASDRLSGNN [ALKBH5, Q6P6C2] ?
Result: confidence 2 (active)
